# Test system: 299254-011-R-J1-PDC complex spheroids viability
# experimentDescription: Anticancer human tumor 299254-011-R-J1-PDC patient-derived melanoma cell line growth inhibition [GQUAD]
# measurementContext: curve of first compound; second compound 0.1 µM
Each entry below carries its reported IC50.

compound	IC50
Cn1ncnc1[C@H]1c2n[nH]c(=O)c3cc(F)cc(c23)N[C@@H]1c1ccc(F)cc1 + CN(C)c1ccc(Nc2c3ccc(NC(=O)CCN4CCCC4)cc3nc3cc(NC(=O)CCN4CCCC4)ccc23)cc1	> 0.316 µM
CC[C@@]1(O)C(=O)OCc2c1cc1n(c2=O)Cc2cc3c(CN(C)C)c(O)ccc3nc2-1 + Cc1[nH]c2ccc(F)cc2c1-c1nc2c3cccnc3c3ncccc3c2[nH]1	> 0.316 µM
CC(C)(O)C1CCC(Nc2ccc3ncc(-c4cccc(C(F)(F)F)c4)n3n2)CC1 (stereo unspecified) + CN(C)c1ccc(Nc2c3ccc(NC(=O)CCN4CCCC4)cc3nc3cc(NC(=O)CCN4CCCC4)ccc23)cc1	> 10 µM
O=C(NO)c1cnc(N2CCN(S(=O)(=O)c3ccc4ccccc4c3)CC2)nc1 + Cc1cnc(CNC(=O)c2c(=O)c3ccc(N4CCCN(C)CC4)nc3n3c2sc2ccccc23)cn1	0.227 µM
C=CCn1c(=O)c2cnc(Nc3ccc(N4CCN(C)CC4)cc3)nc2n1-c1cccc(C(C)(C)O)n1 + CN(C)c1ccc(Nc2c3ccc(NC(=O)CCN4CCCC4)cc3nc3cc(NC(=O)CCN4CCCC4)ccc23)cc1	1.79 µM
COc1ccc([C@@H](O)c2cc(-c3ncnc4cc(N5CCOCC5)ccc34)c(F)cc2Cl)nn1 + Cc1[nH]c2ccc(F)cc2c1-c1nc2c3cccnc3c3ncccc3c2[nH]1	> 10 µM
CCc1c2c(nc3ccc(O)cc13)-c1cc3c(c(=O)n1C2)COC(=O)[C@]3(O)CC + Cc1cnc(CNC(=O)c2c(=O)c3ccc(N4CCCN(C)CC4)nc3n3c2sc2ccccc23)cn1	> 0.316 µM
CC1COCCN1c1cc(C2(O)CC3CCC(C2)O3)c2cnn(-c3ccn[nH]3)c2n1 (stereo unspecified) + Cc1cnc(CNC(=O)c2c(=O)c3ccc(N4CCCN(C)CC4)nc3n3c2sc2ccccc23)cn1	0.104 µM
Cc1[nH]c2ccccc2c1CCNCc1ccc(/C=C/C(=O)NO)cc1 + Cc1cnc(CNC(=O)c2c(=O)c3ccc(N4CCCN(C)CC4)nc3n3c2sc2ccccc23)cn1	0.172 µM
Cc1cccc(N(C)C(=O)C2C(O)CCN2c2nc(C)cc(C(F)(F)F)c2C#N)c1 (stereo unspecified) + Cc1[nH]c2ccc(F)cc2c1-c1nc2c3cccnc3c3ncccc3c2[nH]1	> 10 µM
Cc1cccc(N(C)C(=O)C2C(O)CCN2c2nc(C)cc(C(F)(F)F)c2C#N)c1 (stereo unspecified) + CN(C)c1ccc(Nc2c3ccc(NC(=O)CCN4CCCC4)cc3nc3cc(NC(=O)CCN4CCCC4)ccc23)cc1	> 10 µM
COc1ccc([C@@H](O)c2cc(-c3ncnc4cc(N5CCOCC5)ccc34)c(F)cc2Cl)nn1 + CN(C)c1ccc(Nc2c3ccc(NC(=O)CCN4CCCC4)cc3nc3cc(NC(=O)CCN4CCCC4)ccc23)cc1	> 10 µM
CC1COCCN1c1cc(C2(S(C)(=N)=O)CC2)nc(-c2ccnc3[nH]ccc23)n1 (stereo unspecified) + CN(C)c1ccc(Nc2c3ccc(NC(=O)CCN4CCCC4)cc3nc3cc(NC(=O)CCN4CCCC4)ccc23)cc1	3.93 µM
CC(C)n1c(=O)n(C)c2cnc3cc(F)c(-c4ccc(OCCCN5CCCCC5)nc4)cc3c21 + Cc1cnc(CNC(=O)c2c(=O)c3ccc(N4CCCN(C)CC4)nc3n3c2sc2ccccc23)cn1	7.38 µM
COc1cccc2c1C(=O)c1c(O)c3c(c(O)c1C2=O)CC(O)(C(=O)CO)CC3OC1CC(N)C(O)C(C)O1 (stereo unspecified) + Cc1cnc(CNC(=O)c2c(=O)c3ccc(N4CCCN(C)CC4)nc3n3c2sc2ccccc23)cn1	4.92 µM
C#Cc1c(F)ccc2cc(O)cc(-c3ncc4c(N5CC6CCC(C5)N6)nc(OCC56CCCN5CC(F)C6)nc4c3F)c12 (stereo unspecified) + Cc1cnc(CNC(=O)c2c(=O)c3ccc(N4CCCN(C)CC4)nc3n3c2sc2ccccc23)cn1	> 10 µM
O=c1[nH]cc(F)c(=O)[nH]1 + Cc1cnc(CNC(=O)c2c(=O)c3ccc(N4CCCN(C)CC4)nc3n3c2sc2ccccc23)cn1	> 10 µM
CCc1c2c(nc3ccc(O)cc13)-c1cc3c(c(=O)n1C2)COC(=O)[C@]3(O)CC + Cc1[nH]c2ccc(F)cc2c1-c1nc2c3cccnc3c3ncccc3c2[nH]1	> 0.316 µM
CC1COCCN1c1cc(-c2ccnn2C)c2ccnc(-c3ccn[nH]3)c2n1 (stereo unspecified) + CN(C)c1ccc(Nc2c3ccc(NC(=O)CCN4CCCC4)cc3nc3cc(NC(=O)CCN4CCCC4)ccc23)cc1	0.189 µM
CCCS(=O)(=O)Nc1ccc(F)c(C(=O)c2c[nH]c3ncc(-c4ccc(Cl)cc4)cc23)c1F + CN(C)c1ccc(Nc2c3ccc(NC(=O)CCN4CCCC4)cc3nc3cc(NC(=O)CCN4CCCC4)ccc23)cc1	8.1 µM
CC1COCCN1c1cc(C2(S(C)(=N)=O)CC2)nc(-c2ccnc3[nH]ccc23)n1 (stereo unspecified) + Cc1[nH]c2ccc(F)cc2c1-c1nc2c3cccnc3c3ncccc3c2[nH]1	5.58 µM

* * *

# Test system: 299254-011-R-J1-PDC complex spheroids viability
# experimentDescription: Anticancer human tumor 299254-011-R-J1-PDC cell line growth inhibition [GQUAD];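 note: spheroids exposed to the agents for seven days before readout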;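 for viability, T/C: percent viability relative to DMSO vehicle control wells = 100%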
# measurementContext: second compound 10 µM; first compound 10 µM; stronger effect = lower value

molecule	viability, T/C [%]
COc1cccc2c1C(=O)c1c(O)c3c(c(O)c1C2=O)CC(O)(C(=O)CO)CC3OC1CC(N)C(O)C(C)O1 (stereo not given) + Cc1[nH]c2ccc(F)cc2c1-c1nc2c3cccnc3c3ncccc3c2[nH]1	11.9
COc1ccc([C@@H](O)c2cc(-c3ncnc4cc(N5CCOCC5)ccc34)c(F)cc2Cl)nn1 + Cc1[nH]c2ccc(F)cc2c1-c1nc2c3cccnc3c3ncccc3c2[nH]1	36.9
CCCS(=O)(=O)Nc1ccc(F)c(C(=O)c2c[nH]c3ncc(-c4ccc(Cl)cc4)cc23)c1F + CN(C)c1ccc(Nc2c3ccc(NC(=O)CCN4CCCC4)cc3nc3cc(NC(=O)CCN4CCCC4)ccc23)cc1	34.5
COc1cccc2c1C(=O)c1c(O)c3c(c(O)c1C2=O)CC(O)(C(=O)CO)CC3OC1CC(N)C(O)C(C)O1 (stereo not given) + Cc1cnc(CNC(=O)c2c(=O)c3ccc(N4CCCN(C)CC4)nc3n3c2sc2ccccc23)cn1	0.28
CC(C)n1c(=O)n(C)c2cnc3cc(F)c(-c4ccc(OCCCN5CCCCC5)nc4)cc3c21 + Cc1cnc(CNC(=O)c2c(=O)c3ccc(N4CCCN(C)CC4)nc3n3c2sc2ccccc23)cn1	0.31
O=c1[nH]cc(F)c(=O)[nH]1 + CN(C)c1ccc(Nc2c3ccc(NC(=O)CCN4CCCC4)cc3nc3cc(NC(=O)CCN4CCCC4)ccc23)cc1	96.3
Cc1cccc(N(C)C(=O)C2C(O)CCN2c2nc(C)cc(C(F)(F)F)c2C#N)c1 (stereo not given) + CN(C)c1ccc(Nc2c3ccc(NC(=O)CCN4CCCC4)cc3nc3cc(NC(=O)CCN4CCCC4)ccc23)cc1	67.6
COc1cc(C2c3cc4c(cc3C(OC3OC5COC(C)OC5C(O)C3O)C3COC(=O)C23)OCO4)cc(OC)c1O (stereo not given) + CN(C)c1ccc(Nc2c3ccc(NC(=O)CCN4CCCC4)cc3nc3cc(NC(=O)CCN4CCCC4)ccc23)cc1	81.8
CC(=O)O[C@H]1C(=O)[C@@]2(C)[C@H]([C@H](OC(=O)c3ccccc3)[C@]3(O)C[C@H](OC(=O)[C@H](O)[C@@H](NC(=O)c4ccccc4)c4ccccc4)C(C)=C1C3(C)C)[C@]1(OC(C)=O)CO[C@@H]1C[C@@H]2O + CN(C)c1ccc(Nc2c3ccc(NC(=O)CCN4CCCC4)cc3nc3cc(NC(=O)CCN4CCCC4)ccc23)cc1	15.1
CC(=O)O[C@H]1C(=O)[C@@]2(C)[C@H]([C@H](OC(=O)c3ccccc3)[C@]3(O)C[C@H](OC(=O)[C@H](O)[C@@H](NC(=O)c4ccccc4)c4ccccc4)C(C)=C1C3(C)C)[C@]1(OC(C)=O)CO[C@@H]1C[C@@H]2O + Cc1[nH]c2ccc(F)cc2c1-c1nc2c3cccnc3c3ncccc3c2[nH]1	22.8

* * *

Each entry below carries its reported viability, T/C.
# System: 299254-011-R-J1-PDC complex spheroids viability
# experimentDescription: Anticancer human tumor 299254-011-R-J1-PDC cell line growth inhibition [GQUAD];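 note: spheroids exposed to the agents for seven days before readout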;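 for viability, T/C: percent viability relative to DMSO vehicle control wells = 100%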
# measurementContext: second compound 3.16 µM; first compound 0.0999 µM; stronger effect = lower value

compound	testedOn	viability, T/C
CCc1c2c(nc3ccc(O)cc13)-c1cc3c(c(=O)n1C2)COC(=O)[C@]3(O)CC + Cc1cnc(CNC(=O)c2c(=O)c3ccc(N4CCCN(C)CC4)nc3n3c2sc2ccccc23)cn1	299254-011-R-J1-PDC complex spheroids viability	56%
Cn1ncnc1[C@H]1c2n[nH]c(=O)c3cc(F)cc(c23)N[C@@H]1c1ccc(F)cc1 + Cc1cnc(CNC(=O)c2c(=O)c3ccc(N4CCCN(C)CC4)nc3n3c2sc2ccccc23)cn1	299254-011-R-J1-PDC complex spheroids viability	74.2%
CC[C@@]1(O)C(=O)OCc2c1cc1n(c2=O)Cc2cc3c(CN(C)C)c(O)ccc3nc2-1 + Cc1[nH]c2ccc(F)cc2c1-c1nc2c3cccnc3c3ncccc3c2[nH]1	299254-011-R-J1-PDC complex spheroids viability	96.8%
Cc1[nH]c2ccccc2c1CCNCc1ccc(/C=C/C(=O)NO)cc1 + Cc1cnc(CNC(=O)c2c(=O)c3ccc(N4CCCN(C)CC4)nc3n3c2sc2ccccc23)cn1	299254-011-R-J1-PDC complex spheroids viability	28%
Cn1ncnc1[C@H]1c2n[nH]c(=O)c3cc(F)cc(c23)N[C@@H]1c1ccc(F)cc1 + CN(C)c1ccc(Nc2c3ccc(NC(=O)CCN4CCCC4)cc3nc3cc(NC(=O)CCN4CCCC4)ccc23)cc1	299254-011-R-J1-PDC complex spheroids viability	112%
